- System: OVCAR-4 ovarian
- ASSAY: NCI-60 one-dose screen, 48 h (100 = growth as untreated, 0 = no growth, -100 = all killed)
- ASSAY_CONDITIONS: 10 µM unless noted
The panel holds about 83,000 compounds, 20% with a hit somewhere; the sample as a whole holds those more often.
Classify as follows. Reported growth greater than or equal to 70%: Satisfied. Reported growth below: Not satisfied.

COMPOUND: CN1CCC(=C2c3ccccc3C=Cc3ccccc32)CC1
TGT: OVCAR-4 ovarian
LABEL_CLASS: Satisfied

COMPOUND: CN1C[C@@H](c2ccc(Cl)cc2)[C@]2(NC(=S)N(c3ccc(F)c(Cl)c3)C2=O)[C@@]12C(=O)NC1C=CC(Cl)=C[C@H]12 (some centres undefined)
TGT: OVCAR-4 ovarian
LABEL_CLASS: Not satisfied

COMPOUND: COc1cc2c(cc1OC)-c1ccc3cc4c(cc3c1N(CCN(C)C)C2)OCO4
TGT: OVCAR-4 ovarian
LABEL_CLASS: Not satisfied

COMPOUND: C[C@@H]1C(=O)N(C[C@H](Cc2ccccc2)N(Cc2ccccc2)Cc2ccccc2)[C@]1(Cc1ccccc1)C(=O)OC(C)(C)C
TGT: OVCAR-4 ovarian
LABEL_CLASS: Not satisfied

COMPOUND: COc1ccc(C2=NC(=O)NC2c2ccc(OC)cc2)cc1 (centres undefined)
TGT: OVCAR-4 ovarian
LABEL_CLASS: Satisfied

COMPOUND: CCCCOc1nc2ccc(Cl)cc2cc1/C=C/C(=O)/C=C1/CC(c2cc3cc(Cl)ccc3nc2OCCCC)Nc2ccccc2N1 (centres undefined)
TGT: OVCAR-4 ovarian
LABEL_CLASS: Satisfied

COMPOUND: C[C@@H]1C(=O)N(C[C@H](Cc2ccccc2)NC(=O)OCc2ccccc2)[C@]1(Cc1ccccc1)C(=O)OC(C)(C)C
TGT: OVCAR-4 ovarian
LABEL_CLASS: Not satisfied

COMPOUND: Cc1nn(Cc2ccccc2)cc1C(=O)Nc1sc2c(c1C(N)=O)CCC(=O)C2
TGT: OVCAR-4 ovarian
LABEL_CLASS: Not satisfied

COMPOUND: CC(C)n1nc(C#Cc2cccc3cc(-c4cccc(C(F)(F)F)c4)ncc23)c2c(N)ncnc21
TGT: OVCAR-4 ovarian
LABEL_CLASS: Satisfied

====

Below, each entry is listed with its recorded growth.
- System: T-47D breast
- ASSAY: NCI-60 one-dose screen, 48 h (100 = growth as untreated, 0 = no growth, -100 = all killed)
- ASSAY_CONDITIONS: 10 µM unless noted
Compounds without any hit were thinned out: in the full panel of roughly 83,000, 20% have a hit.

MOLECULE: C#C[C@]1(O)CC[C@H]2[C@@H]3CC=C4c5sc(N=C(N)N)nc5CC[C@]4(C)[C@H]3CC[C@@]21C
TGT: T-47D breast
MEASURE_UNIT: %
growth: 1.23

MOLECULE: C=CCO[C@H]1CO[C@H]2[C@@H]1OC[C@@H]2Oc1ccc(Nc2ccnc(Nc3ccc(O[C@H]4CO[C@H]5[C@@H]4OC[C@@H]5OCC=C)c(Cl)c3)n2)cc1Cl
TGT: T-47D breast
MEASURE_UNIT: %
growth: -39.7

MOLECULE: CN(C)CCCCNc1ccc(NCCCCN(C)C)c2c1C(=O)c1c(O)ccc(O)c1C2=O
TGT: T-47D breast
MEASURE_UNIT: %
growth: 97.1

MOLECULE: N#Cc1c(Oc2ccc([N+](=O)[O-])cc2)nc2sc3cc(Cl)ccc3n2c1=N
TGT: T-47D breast
MEASURE_UNIT: %
growth: 60.2

MOLECULE: CCCCCOC(=O)c1cccc(NC(=O)CN(CC)CC)c1
TGT: T-47D breast
MEASURE_UNIT: %
growth: 91.9

MOLECULE: COc1cc2c(cc1OC)-c1ccc3cc4c(cc3c1N(CCN(C)C)C2)OCO4
TGT: T-47D breast
MEASURE_UNIT: %
growth: -12.3

MOLECULE: N=C(N)c1ccc(-c2ccc(-c3ccc(Cl)cc3Cl)o2)cc1
TGT: T-47D breast
MEASURE_UNIT: %
growth: 57.6

MOLECULE: CNC(=O)c1c(NC(=O)c2ccc(C(C)(C)C)cc2)sc2c1CCC(=O)C2
TGT: T-47D breast
MEASURE_UNIT: %
growth: -23.5

MOLECULE: C=C1C(=O)O[C@H]2[C@H]1CC/C(COC(=O)/C=C\C(=O)NCc1ccc(Cn3c(=O)sn(-c4ccc(Cl)cc4)c3=O)cc1)=C\CC[C@@]1(C)O[C@@H]21
TGT: T-47D breast
MEASURE_UNIT: %
growth: -44.1

MOLECULE: Cc1ccc(/C(=N\N=C(N)N)c2ccccc2)cc1
TGT: T-47D breast
MEASURE_UNIT: %
growth: 23

MOLECULE: C[C@@H]1C(=O)N(C[C@H](Cc2ccccc2)N(Cc2ccccc2)Cc2ccccc2)[C@]1(Cc1ccccc1)C(=O)OC(C)(C)C
TGT: T-47D breast
MEASURE_UNIT: %
growth: 47.4

MOLECULE: O=C1Nc2ccccc2/C1=N/N=C/c1ccc(OC2OC(CO)C(O)C(O)C2O)cc1 (stereo not given)
TGT: T-47D breast
MEASURE_UNIT: %
growth: 105

MOLECULE: CCOC(=O)C(O)C(O)(c1ccccc1)c1ccccc1 (stereo not given)
TGT: T-47D breast
MEASURE_UNIT: %
growth: 93.6

MOLECULE: COc1cc2c(c(OC)c1OC)C(=O)/C(=C/c1cc(C)c(O)c(C)c1)S2
TGT: T-47D breast
MEASURE_UNIT: %
growth: 47.6

MOLECULE: Cc1ccc(NSc2ccccc2[N+](=O)[O-])cc1
TGT: T-47D breast
MEASURE_UNIT: %
growth: 27.3

MOLECULE: CN(C)c1ccc(/C=N/NC(=O)COc2cc(=O)n(C)c3ccccc23)cc1
TGT: T-47D breast
MEASURE_UNIT: %
growth: 97.6

MOLECULE: CCOc1cccnc1/C=N/NC(N)=S
TGT: T-47D breast
MEASURE_UNIT: %
growth: 71.8

MOLECULE: O=C(/C=C/c1ccccc1)c1ccc2ccccc2c1
TGT: T-47D breast
MEASURE_UNIT: %
growth: 47.4

MOLECULE: COc1ccc(-n2nnc(C(=O)NCCc3c[nH]c4ccc(F)cc34)c2C)cc1
TGT: T-47D breast
MEASURE_UNIT: %
growth: 89.3

MOLECULE: Cn1nnnc1-c1ccc(N)cc1
TGT: T-47D breast
MEASURE_UNIT: %
growth: 87.2

====

- System: RXF 393 renal
- ASSAY: NCI-60 one-dose screen, 48 h
- ASSAY_CONDITIONS: 10 µM unless noted
Compounds without any hit were thinned out: in the full panel of roughly 83,000, 20% have a hit. Active and inactive are the calls of the source. The calls were made as follows: active = growth percent below 10; inactive = the rest.
Possible outcomes: T (active), F (inactive)

COMPOUND: CN(CCC(=O)/C(=C\c1ccccc1)c1ccc(Cl)cc1)Cc1ccccc1
LABEL_CLASS: T
//
COMPOUND: Clc1ccc(-c2nc(NCCc3ccccc3)nc3c(NCCc4ccccc4)cnn23)cc1
LABEL_CLASS: F
//
COMPOUND: CC(C)CCC[C@@H](C)[C@H]1CCC2C3=CCn4c(=O)ccc(=O)n4C3CC[C@@]21C (stereo not given in full)
LABEL_CLASS: T
//
COMPOUND: CS(=O)(=O)c1ccc(-c2[nH]c3ccc(F)cc3c2/C=N/NC(N)=S)cc1
LABEL_CLASS: T
//
COMPOUND: COc1ccc(C(=O)/C=C/c2cc3c(c(OC)c2)OCC(=O)N3)cc1
LABEL_CLASS: F
//
COMPOUND: O=C(/C=C/C12c3ccccc3C(c3ccccc31)C1C(=O)N(c3ccccc3)C(=O)C12)c1ccccc1 (stereo not given)
LABEL_CLASS: T
//
COMPOUND: CN1CCN(C(=O)[C@@]2(C)CC[C@]3(C)CC[C@]4(C)C(=CC[C@@H]5[C@@]6(C)C/C(=C/c7ccncc7)C(=O)C(C)(C)[C@@H]6CC[C@]54C)[C@@H]3C2)CC1
LABEL_CLASS: F
//
COMPOUND: O=C(/C=C/c1ccccc1)c1ccc2ccccc2c1
LABEL_CLASS: F
//
COMPOUND: CSc1ncc(C)c(Nc2ccc(Cl)cc2)n1
LABEL_CLASS: F
//
COMPOUND: Nc1ccn(C2OC(F)(CO)C(O)C2F)c(=O)n1 (stereo not given)
LABEL_CLASS: F
//
COMPOUND: CCCCCCNC(=O)c1cc(NCc2cc(O)ccc2O)ccc1O
LABEL_CLASS: F
//
COMPOUND: CCOC(=O)c1c(C)nc2c(c1N)/C(=C/c1cc(OC)c(OC)c(OC)c1)C(=O)N2c1ccc(OC)cc1
LABEL_CLASS: F
//
COMPOUND: C=C1C(=O)O[C@H]2[C@H]1CC/C(Cn1cc(CNCCc3c[nH]c4ccccc34)nn1)=C\CC[C@@]1(C)O[C@@H]21
LABEL_CLASS: F
//
COMPOUND: Cc1ccc(S(=O)(=O)NN/C(N)=N\S(=O)(=O)c2cc(C)c(Cl)cc2SCc2ccccc2)cc1
LABEL_CLASS: T
//
COMPOUND: CCN(CC)N=Nc1nn(C(=O)Nc2ccc(Cc3ccccc3)cc2)c2ccc(Cl)cc12
LABEL_CLASS: F
//
COMPOUND: COc1cccc(CCC2CCCN(c3cc(C)nc(N)n3)C2)c1 (stereo not given)
LABEL_CLASS: F
//
COMPOUND: Cl.Fc1c[c-]c(-c2ccccn2)c(F)c1.[Pt].c1ccc([PH+](c2ccccc2)c2ccccc2[PH+](c2ccccc2)c2ccccc2)cc1
LABEL_CLASS: T
//
COMPOUND: CS(=O)(=O)c1ccc(-c2[nH]c3ccc(F)cc3c2/C=N/O)cc1
LABEL_CLASS: F
//
COMPOUND: NC(N)=N/N=C/CO
LABEL_CLASS: F
//
COMPOUND: C#CC[C@H](N)C(=O)O
LABEL_CLASS: F

Hey, just so you know, these numbers are from PubChem BioAssay (NCI).
